# Test system: HEK-293T
# experiment_summary: Multiplex assay against HEK293T
# Format: toxicity, cell-based
# cond: human, 12 h, 1 µM, compound concentration 1 uM, replicate 1
// classify: if (Population Hoechst High Intensity Objects (%) < 10%) Fulfilled else Not fulfilled

[[record]]
molecule = "O=C1NCN(c2ccccc2)C12CCN(CCCOc1ccc(F)cc1)CC2 [SPIRAMIDE]"
category = "Not fulfilled"


## Input Population Hoechst High Intensity Objects (%) under 10%? Item: `C=CC(=O)Nc1cccc(C(=O)Nc2ccc(Nc3cc(-c4[nH]c(SC)nc4C)ccn3)cc2)c1`
## Output Not fulfilled

## Input Is the reported Population Hoechst High Intensity Objects (%) for C=CC(=O)Nc1cc2c(Nc3ccc(F)c(Cl)c3)ncnc2cc1OCCCN1CCOCC1.Cl.Cl [CANERTINIB DIHYDROCHLORIDE] strictly below 10%?
## Output Not fulfilled

## Input Identify whether the molecule COc1ncc(-c2ccc3nccc(-c4ccnnc4)c3c2)cc1NS(=O)(=O)c1ccc(F)cc1F [OMIPALISIB] records Population Hoechst High Intensity Objects (%) below 10%.
## Output Not fulfilled

## Input I wonder whether COc1cccc([C@@H](C)NCCCc2ccccc2Cl)c1.Cl [TECALCET HYDROCHLORIDE] has Population Hoechst High Intensity Objects (%) below 10%. Can you tell?
## Output Not fulfilled

## Input Population Hoechst High Intensity Objects (%) strictly < 10% for this molecule? CN1CCCC(n2nc(Cc3ccc(Cl)cc3)c3ccccc3c2=O)CC1.Cl (configuration not stated) [AZELASTINE HYDROCHLORIDE]
## Output Fulfilled

## Input Does the reported Population Hoechst High Intensity Objects (%) of CN(C)CC#Cc1ccc(OCCCc2sc(N3CCc4cccc(C(=O)Nc5nc6ccccc6s5)c4C3)nc2C(=O)O)c(F)c1 [A-1155463] stay below 10%?
## Output Not fulfilled

## Input Quick check: Population Hoechst High Intensity Objects (%) of CN1CCN(CCOc2cc(OC3CCOCC3)c3c(Nc4c(Cl)ccc5c4OCO5)ncnc3c2)CC1 [SARACATINIB] under 10%?
## Output Not fulfilled

## Input is_below(Population Hoechst High Intensity Objects (%), 10%) for `Cc1csc2c(N[C@@H](C)CN3CCN(S(=O)(=O)c4ccc(Cl)c(Cl)c4)CC3)ncnc12` ?
## Output Not fulfilled

## Input Please let me know if C[C@@H](NCCCc1cccc(C(F)(F)F)c1)c1cccc2ccccc12.Cl [CINACALCET HYDROCHLORIDE] shows Population Hoechst High Intensity Objects (%) below 10%.
## Output Fulfilled

* * *

# Test system: Fibroblast
# experiment_summary: Multiplex assay against human fibroblast
# Type: toxicity, cell-based
# cond: 48 h, 1 µM, compound concentration 1 uM, replicate 2
// reported Population Normal (%) per item
Report the figure in % without appending any unit label.

The examples below pair each entry with its known result.
[[record]]
molecule = "Cc1cc(C)cc(-c2cnc3cc(Cl)c(-c4cccc(O)c4)cc3c2OCCCN)c1"
reported_measurement = 82

[[record]]
molecule = "CN(C)CC#Cc1ccc(OCCCc2sc(N3CCc4cccc(C(=O)Nc5nc6ccccc6s5)c4C3)nc2C(=O)O)c(F)c1"
reported_measurement = 88

[[record]]
molecule = "CN(C)C(=O)/C(C#N)=C/c1ccc(-c2nc3cnc4[nH]ccc4c3n2C2CCCCC2)o1"
reported_measurement = 89

[[record]]
molecule = "CN1CCN(c2ccc(OC(F)(F)F)c(Nc3ncc4c(n3)-c3c(c(C(N)=O)nn3CCO)CC4)c2)CC1"
reported_measurement = 82


## Input Record `Cc1csc2c(N[C@@H](C)CN3CCN(S(=O)(=O)c4ccc(Cl)c(Cl)c4)CC3)ncnc12` : what is its Population Normal (%) with Fibroblast?
## Output 91

## Input I'm curious: which Population Normal (%) was measured for `CC[C@H](C)C(=O)O[C@H]1C[C@@H](C)C=C2C=C[C@H](C)[C@H](CC[C@@H]3C[C@@H](O)CC(=O)O3)[C@H]21` tested on Fibroblast?
## Output 92

## Input Request - read-out Population Normal (%) | tested on Fibroblast | molecule `C=CC(=O)Nc1cccc(C(=O)Nc2ccc(Nc3cc(-c4[nH]c(SC)nc4C)ccn3)cc2)c1`
## Output 82

## Input So what Population Normal (%) did `c1cn2cc(-c3ccc4cn[nH]c4c3)nc(Nc3ccc(N4CCOCC4)cc3)c2n1` get with Fibroblast?
## Output 88

## Input Quick check: Population Normal (%) on Fibroblast, item CN(C)C(=O)N[C@H]1CC[C@H](CCN2CCN(c3cccc(Cl)c3Cl)CC2)CC1.Cl [CARIPRAZINE HYDROCHLORIDE] ?
## Output 88

## Input Query for Fibroblast: what Population Normal (%) does the record show for C[C@@H](NCCCc1cccc(C(F)(F)F)c1)c1cccc2ccccc12.Cl [CINACALCET HYDROCHLORIDE] ?
## Output 89

* * *

This section presents molecules with their documented Population Mitotic Cells (%) values.
# Tested on: U2OS
# experiment_summary: Multiplex assay against U2OS
# Format: toxicity, cell-based
# cond: human, 12 h, 1 µM, compound concentration 1 uM, replicate 1
Write down the numeric answer in % and omit the unit.

Past entries and their recorded results:
[[record]]
molecule = "Cc1[nH]c(/C=C2\\C(=O)Nc3ccc(S(=O)(=O)N(C)c4cccc(Cl)c4)cc32)c(C)c1C(=O)N1CCN(C)CC1"
test_readout = "Population Mitotic Cells (%)"
unit_of_measurement = "%"
reported_measurement = 33

[[record]]
molecule = "CN1CCC[C@@H]1CCO[C@](C)(c1ccccc1)c1ccc(Cl)cc1.O=C(O)/C=C/C(=O)O [CLEMASTINE FUMARATE]"
test_readout = "Population Mitotic Cells (%)"
unit_of_measurement = "%"
reported_measurement = 50


## Input What value of Population Mitotic Cells (%) has been reported for the following molecule? `CNc1nc(NCc2ccc(NS(C)(=O)=O)cc2Cl)cc(-c2ccccn2)n1`
## Output 64

## Input Requested field: Population Mitotic Cells (%). Item: `Cc1nc(-c2cn3c(n2)-c2ccc(-c4cnn(C(C)(C)C(N)=O)c4)cc2OCC3)n(C(C)C)n1`
## Output 45

* * *

# Test system: Fibroblast
# experiment_summary: Multiplex assay against human fibroblast
# Type: toxicity, cell-based
# cond: 12 h, 1 µM, compound concentration 1 uM, replicate 2
test_readout: Population Pyknosed Nuclei (%)
Numeric only. Scale: %

Known results for compounds:
[[record]]
compound = "CN1CCC[C@@H]1CCO[C@](C)(c1ccccc1)c1ccc(Cl)cc1.O=C(O)/C=C/C(=O)O [CLEMASTINE FUMARATE]"
test_readout = "Population Pyknosed Nuclei (%)"
reported_measurement = 7

[[record]]
compound = "CN1CCN(c2ccc(OC(F)(F)F)c(Nc3ncc4c(n3)-c3c(c(C(N)=O)nn3CCO)CC4)c2)CC1"
test_readout = "Population Pyknosed Nuclei (%)"
reported_measurement = 7


In the following, a different compound is considered.
## Input // query Population Pyknosed Nuclei (%) value for entry `CN(C)C(=O)/C(C#N)=C/c1ccc(-c2nc3cnc4[nH]ccc4c3n2C2CCCCC2)o1`
## Output 7

* * *

# Test system: Fibroblast
# experiment_summary: Multiplex assay against human fibroblast
# Assay type: toxicity, cell-based
# cond: 24 h, 10 µM, compound concentration 10 uM, replicate 2
Hi! Just check whether Population Normal (%) is below 90%. Below gives yes, equal or above gives no.

[[record]]
compound = "C=CC(=O)Nc1cc2c(Nc3ccc(F)c(Cl)c3)ncnc2cc1OCCCN1CCOCC1.Cl.Cl [CANERTINIB DIHYDROCHLORIDE]"
system_name = "Fibroblast"
category = "yes"


## Input Input `COc1cc2nccc(Oc3ccc(NC(=O)Nc4cc(C)on4)c(Cl)c3)c2cc1OC.O` ; condition: Population Normal (%) strictly below 90%. Does it hold?
## Output no

## Input Confirm or reject: Population Normal (%) of Cc1c(-c2ccc(O)cc2)n(Cc2ccc(OCCN3CCCCCC3)cc2)c2ccc(O)cc12 [BAZEDOXIFENE] lies strictly below 90%
## Output yes

## Input In plain terms, does `OC1(c2ccc(Cl)cc2)CCN(Cc2c[nH]c3ccccc23)CC1` come in under 90% for Population Normal (%)?
## Output no

* * *

# System: Fibroblast
# experiment_summary: Multiplex assay against human fibroblast
# Type: toxicity, cell-based
# cond: 24 h, 10 µM, compound concentration 10 uM, replicate 2
test_readout: Population Fragmented Nuclei (%)
Write down the numeric answer in % and omit the unit.

[[record]]
smiles_representation = "Cn1cc(-c2[nH]c3cc(NC(=O)[C@H](N)C4CCCCC4)cc4c3c2C=NNC4=O)cn1"
test_readout = "Population Fragmented Nuclei (%)"
reported_measurement = 34

[[record]]
smiles_representation = "C=CC(=O)Nc1ccc2ncnc(Nc3ccc(OCc4cccc(F)c4)c(Cl)c3)c2c1.Cc1ccc(S(=O)(=O)O)cc1"
test_readout = "Population Fragmented Nuclei (%)"
reported_measurement = 12


## Input Given the entry `CNc1nc(NCc2ccc(NS(C)(=O)=O)cc2Cl)cc(-c2ccccn2)n1` , report its measured Population Fragmented Nuclei (%).
## Output 20
